Target: HER2 (Homo sapiens (Human), UniProt P04626 23-652)
Assay: phage ELISA, A450 target/A450 IgG1-Fc
Assay readout: ELISA_avg (ratio)
The reply should contain only the number, in ratio.

Problem: Consider the binder shown here: SEQ ID NO 930 (designed binder) MGSWFEFNIRLHAIEYRLKALGGSEAELAAFEKEIAAFESELQAYKGKGNPEVEELRNYAASIRKLLQAYRHN What is its recorded ELISA_avg?
Solution: 7.86

Problem: I would be grateful if you could share the reported ELISA_avg for SEQ ID NO 924 (designed binder) MGSWLVFKDELAGIKNYLEALGGSEAELATFEQDIAWFEQWLQNYKGKGNPEVEALRKEAAAIRDELQAYRHN .
Solution: 3.28

Problem: Fill in: ELISA_avg of SEQ ID NO 932 (designed binder) MGSWFEFKIRLYAIQYRLSALGGSEAELAAFEKEIAAFESELQAYKGKGNPEVEELRNLAAEIRHSLQAYRHN is ___
Solution: 13.1
